Target: Muscarinic acetylcholine receptor M1 (Rattus norvegicus)
Sequence (whole entry): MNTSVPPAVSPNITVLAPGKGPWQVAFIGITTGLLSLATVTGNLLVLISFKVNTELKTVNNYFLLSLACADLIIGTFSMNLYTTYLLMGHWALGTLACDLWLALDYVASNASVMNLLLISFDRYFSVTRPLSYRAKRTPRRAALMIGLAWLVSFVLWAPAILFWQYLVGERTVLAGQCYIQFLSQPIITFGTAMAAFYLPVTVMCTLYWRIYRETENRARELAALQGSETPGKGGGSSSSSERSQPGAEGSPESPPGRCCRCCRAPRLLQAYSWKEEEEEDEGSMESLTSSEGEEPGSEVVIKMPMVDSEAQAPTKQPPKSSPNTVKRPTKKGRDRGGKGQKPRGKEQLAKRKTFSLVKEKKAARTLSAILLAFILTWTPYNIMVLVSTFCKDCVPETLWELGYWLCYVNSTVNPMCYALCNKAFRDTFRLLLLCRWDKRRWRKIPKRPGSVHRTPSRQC
Experiment: Activation of rat muscarinic M1 receptor expressed in CHO cells co-expressing Gq protein assessed as potentiation of acetylcholine-induced intracellular Ca2+ mobilization at 30 uM relative to acetylcholine
Type: functional, cell-based
Please provide measured %max for the entries that follow.
One number for each entry, in %.

These recorded examples may help you get a feel for the data.
Query block: Tell me the measured %max of "COc1cccc(CN2C(=O)C(=O)c3c(Cl)ccc(Cl)c32)c1" , please.
Result block: 13.3

Query block: Which value of %max has been reported for "Cc1ccccc1CN1C(=O)C(=O)c2cccc(Cl)c21" in the records?
Result block: 32.8

Query block: What %max value was documented for this compound, "O=C1C(=O)N(Cc2ccc(OC(F)(F)F)cc2)c2c(F)cccc21" ?
Result block: 51.8

I have 6 compounds here; please give me %max for each one.
1. O=C1C(=O)N(Cc2ccc(Br)cc2F)c2c(F)cccc21
2. O=C1C(=O)N(Cc2ccc(Br)cc2)c2c(F)cccc21
3. O=C1C(=O)N(Cc2ccccc2F)c2c(Cl)ccc(Cl)c21
4. O=C1C(=O)N(Cc2ccccc2C(F)(F)F)c2ccccc21
5. Cc1ccc2c(c1)C(=O)C(=O)N2Cc1ccccc1C
6. O=C1C(=O)N(Cc2ccccc2F)c2c(F)cccc21

Result block:
[39.2, 62.7, 12.4, 37.9, 20.2, 42.7]

###

Biological target: Muscarinic acetylcholine receptor M5 (Homo sapiens) (UniProt P08912)
Sequence (whole entry): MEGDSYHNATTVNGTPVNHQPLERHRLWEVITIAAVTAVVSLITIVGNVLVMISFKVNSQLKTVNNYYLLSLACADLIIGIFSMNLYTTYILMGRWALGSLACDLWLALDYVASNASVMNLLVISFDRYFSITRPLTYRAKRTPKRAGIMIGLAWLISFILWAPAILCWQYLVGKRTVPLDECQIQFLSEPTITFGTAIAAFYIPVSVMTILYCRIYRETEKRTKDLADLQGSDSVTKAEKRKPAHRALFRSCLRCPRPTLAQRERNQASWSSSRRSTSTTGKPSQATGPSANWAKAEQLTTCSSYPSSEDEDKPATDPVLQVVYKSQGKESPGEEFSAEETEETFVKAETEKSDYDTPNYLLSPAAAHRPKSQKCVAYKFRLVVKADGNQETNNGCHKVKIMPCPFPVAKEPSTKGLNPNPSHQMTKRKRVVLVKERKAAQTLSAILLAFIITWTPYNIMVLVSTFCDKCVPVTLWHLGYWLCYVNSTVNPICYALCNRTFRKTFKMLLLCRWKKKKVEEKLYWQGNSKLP
Experiment: Activation of human muscarinic M5 receptor expressed in CHO cells coexpressing Gq protein assessed as potentiation of acetylcholine-induced intracellular Ca2+ mobilization at 30 uM relative to acetylcholine
Type: functional, cell-based
Assay endpoint: %max (%)
Answers are plain numbers, in %.

// below: answered compounds
Query block: Value lookup for %max; key = "COc1cccc(CN2C(=O)C(=O)c3cccc(F)c32)c1"
Result block: 52

Query block: Endpoint output: %max of "O=C1C(=O)N(Cc2ccc(Br)cc2)c2c(Cl)cccc21" . Value?
Result block: 44.3

Query block: Name the recorded %max for "O=C1C(=O)N(Cc2ccccc2Cl)c2ccc(F)cc21" .
Result block: 39.9

Query block: Name the reported %max value associated with the compound "O=C1C(=O)N(Cc2ccc(Br)cc2F)c2ccc(F)cc21"
Result block: 64

Query block: Which %max reading was recorded for the compound "COc1ccc(CN2C(=O)C(=O)c3cc(Cl)ccc32)cc1" ?
Result block: 32.6

Consider the additional compound presented here.
Query block: # lookup: %max of "COc1cccc(CN2C(=O)C(=O)c3cc(OC(F)(F)F)ccc32)c1"
Result block: 70.1
